- Experimental System: JAK2 (Homo sapiens (Human))
- Sequence (O60674 849-1124): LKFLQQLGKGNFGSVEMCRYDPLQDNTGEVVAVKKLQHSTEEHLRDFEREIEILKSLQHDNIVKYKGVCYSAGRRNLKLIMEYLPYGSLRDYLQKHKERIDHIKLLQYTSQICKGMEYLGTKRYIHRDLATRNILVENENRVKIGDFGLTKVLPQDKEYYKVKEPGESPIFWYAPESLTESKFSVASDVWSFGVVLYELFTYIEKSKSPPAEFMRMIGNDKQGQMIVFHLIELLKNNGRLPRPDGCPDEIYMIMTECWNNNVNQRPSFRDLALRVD
- Experiment Summary: Jak Biochemical HTRF Assay (JAK2)
- Run Parameters: JAK2 IC50, recombinant GST-tagged catalytic domain, [ATP] 8.5 μM, unit not given (compound concentrations tested given in nM)
Listing of recorded IC50 by entry.
Write the number in nM without appending the unit.

// solved cases for IC50 follow
Molecule | Experimental System | Number
N#C[C@H]1CCOC[C@@H]1n1nc(Nc2ccc(C3(C(F)(F)F)CCCCN3)cc2)c2c(=O)[nH]ccc21 (single isomer, unassigned) [Example 2-8] | JAK2 (Homo sapiens (Human)) | 0.05
N#C[C@H]1CCOCC1n1nc(Nc2ccc(C(O)(c3ccncc3)C(F)(F)F)cc2)c2c(=O)[nH]ccc21 (single isomer, unassigned) [Example 1-94] | JAK2 (Homo sapiens (Human)) | 0.15
CC1CCCN1C(c1ccc(Nc2nn([C@H]3COCC[C@@H]3C#N)c3cc[nH]c(=O)c23)cc1)C(F)(F)F (single isomer, unassigned) [Example 1-87] | JAK2 (Homo sapiens (Human)) | 0.3

Reported IC50 ( N#C[C@H]1CCOC[C@@H]1n1nc(Nc2ccc(C(N3CCCC3)C(F)(F)F)cc2)c2c(=O)[nH]ccc21 (single isomer, unassigned) [Example 1-43] ) = 0.08

For N#C[C@H]1CCOC[C@@H]1n1nc(Nc2ccc(C(N3CCSCC3)C(F)(F)F)cc2)c2c(=O)[nH]ccc21 (single isomer, unassigned) [Example 2-6] the molecule record lists IC50 as 0.24

* * *

- Experimental System: UniProt O60674
- Experiment Summary: Jak Biochemical HTRF Assay (JAK2)
- Run Parameters: JAK2 IC50, recombinant GST-tagged catalytic domain, [ATP] 8.5 μM, unit not given (compound concentrations tested given in nM)
We label by threshold. Values of IC50 strictly beneath 0.2 nM are class 1. Values of 0.2 nM and up are class 0.

Compound | Label Class
CC1CCN1S(=O)(=O)c1ccc(Nc2nn([C@H]3COCC[C@@H]3C#N)c3cc[nH]c(=O)c23)cc1 (single isomer, unassigned) [Example 1-78] | class 0
CC1(C)CC1NC(c1ccc(Nc2nn([C@H]3COCC[C@@H]3C#N)c3cc[nH]c(=O)c23)cc1)C(F)(F)F (single isomer, unassigned) [Example 1-47] | class 0
N#C[C@H]1CCOC[C@@H]1n1nc(Nc2ccc(C(NC3CCC3)C(F)(F)F)cc2)c2c(=O)[nH]ccc21 (single isomer, unassigned) [Example 1-92] | class 1
CC1CCN1S(=O)(=O)c1ccc(Nc2nn([C@H]3COCC[C@@H]3C#N)c3cc[nH]c(=O)c23)cc1 (single isomer, unassigned) [Example 1-77] | class 1

Please check: IC50 for CC1(C)CC1NC(c1ccc(Nc2nn([C@H]3COCC[C@@H]3C#N)c3cc[nH]c(=O)c23)cc1)C(F)(F)F (single isomer, unassigned) [Example 1-49] , strictly under 0.2 nM or not?
class 0

I'd appreciate it if you could check whether CN1CCN(C(c2ccc(Nc3nn([C@H]4COCC[C@@H]4C#N)c4cc[nH]c(=O)c34)cc2)C(F)(F)F)CC1 (single isomer, unassigned) [Example 1-37] has IC50 smaller than 0.2 nM.
class 0

A record lists N#C[C@H]1CCOC[C@@H]1n1nc(Nc2ccc(C(NC3CCC3)C(F)(F)F)cc2)c2c(=O)[nH]ccc21 (single isomer, unassigned) [Example 1-93] . Is its IC50 below 0.2 nM?
class 1

In the record for CC(C)CNC(c1ccc(Nc2nn([C@H]3COCC[C@@H]3C#N)c3cc[nH]c(=O)c23)cc1)C(F)(F)F (single isomer, unassigned) [Example 1-91] , is IC50 less than 0.2 nM?
class 0

Please let me know if CC1CCCN1C(c1ccc(Nc2nn([C@H]3COCC[C@@H]3C#N)c3cc[nH]c(=O)c23)cc1)C(F)(F)F (single isomer, unassigned) [Example 1-86] shows IC50 below 0.2 nM.
class 0
